pIC50: −log10 of the molar value.
The following compounds each carry a recorded pIC50 for JNK2 (Homo sapiens (Human)).

> print(dat)
                                        smi    test.value
1   Cc1csc(-c2sccc2NC(=O)Cc2cccc3cnccc23)n1  5.00 to 7.00
2  CCc1n[nH]c(-c2sccc2NC(=O)Cc2ccc(OC)cc2)n1  5.00 to 7.00
3        COc1ccc(CC(=O)Nc2ccsc2-n2cncn2)cc1        < 4.30
4  Cc1n[nH]c(-c2c(C)csc2NC(=O)CN2C(=O)CCc3ccccc32)n1        > 7.00

### Prompt Request - read-out pIC50 | tested on JNK2 (Homo sapiens (Human)) | compound O=C(Cc1cccc2cnccc12)Nc1scc(Cl)c1-c1ncn[nH]1
### Response > 7.00

---

target: UniProtKB P45984
pIC50: −log10 of the molar value.
property_label: pIC50

Illustrative cases are given below, each with its answer.
> print(dat)
                                        smi     system.tested    test.value
1     COc1ccc(CC(=O)Nc2ccsc2-c2nnc(C)o2)cc1  UniProtKB P45984        < 4.30
2  O=C(Cn1c(=O)ccc2cc(C(F)(F)F)ccc21)Nc1ccsc1-c1cscn1  UniProtKB P45984  5.00 to 7.00
3     COc1ccc(CC(=O)Nc2ccsc2-n2cnc(C)c2)cc1  UniProtKB P45984        < 4.30
4     Cn1ccnc1-c1sccc1NC(=O)Cc1cccc2ccccc12  UniProtKB P45984        < 4.30
5  Cc1n[nH]c(-c2sccc2NC(=O)Cc2ccc3c(c2)OCCO3)n1  UniProtKB P45984  5.00 to 7.00

# next molecule below
### Prompt Fill in: pIC50 of Cn1cnc(-c2c(Br)csc2NC(=O)CN2C(=O)CCc3ncccc32)n1 is ___
### Response > 7.00
